Test system: myosin ATPase, Porcine Atria myofibrils
Assay: Myofibril ATPase assay, porcine atria myofibrils
Type: biochemical
Conditions: concentration required to reduce myosin ATP-ase activity by 25%; Porcine Atria Prep pCa 25 GEOM_MEAN
Each entry below lists one item and its recorded Porcine Atria EC25 (Y75 value) value.
MEASUREMENT_KIND: Porcine Atria EC25 (Y75 value) (µM)

INSERT INTO measurements (molecule, unit_of_measurement, recorded_result) VALUES
  ('Cc1c(F)ccc2[nH]c(=O)n(CC(=O)N[C@@H]3CCc4cc(C#N)cnc43)c(=O)c12 (single isomer, unassigned) [Compound 9]', 'µM', 0.078),
  ('C[C@H](NC(=O)C(c1cccnc1)n1c(=O)[nH]c2ccccc2c1=O)c1ccc(F)cc1F (single isomer, unassigned) [Compound 508]', 'µM', 100),
  ('C[C@H](NC(=O)Cn1c(=O)[nH]c2ccccc2c1=O)c1ccncc1F (single isomer, unassigned) [Compound 99]', 'µM', 100),
  ('C[C@H](NC(=O)Cn1c(=O)[nH]c2cccc(F)c2c1=O)c1ncc(C#N)cn1 (single isomer, unassigned) [Compound 202]', 'µM', 8.617),
  ('C[C@H](NC(=O)[C@H](CC1CC1)n1c(=O)[nH]c2ccccc2c1=O)c1ncc(F)cc1F (single isomer, unassigned) [Compound 211]', 'µM', 100),
  ('C[C@H](NC(=O)[C@H](C)n1c(=O)[nH]c2cccc(O)c2c1=O)c1ccc(F)cc1F (single isomer, unassigned) [Compound 35]', 'µM', 0.0835),
  ('COCn1c(=O)n(CC(=O)N[C@@H](C)c2ccc(F)cc2F)c(=O)c2cc(F)ccc21 [Compound 402]', 'µM', 100),
  ('C[C@H](NC(=O)Cn1c(=O)[nH]c2cccc(O)c2c1=O)c1ccc(F)cc1F [Compound 72]', 'µM', 0.1151),
  ('C[C@@H](NC(=O)Cn1c(=O)[nH]c2ccc(F)cc2c1=O)c1cnc(C#N)nc1 (single isomer, unassigned) [Compound 209]', 'µM', 100),
  ('C[C@H](NC(=O)Cn1c(=O)[nH]c2cccc(F)c2c1=O)c1ncc(C#N)cc1F (single isomer, unassigned) [Compound 208]', 'µM', 0.085),
  ('Cc1ccc2[nH]c(=O)n(CC(=O)N[C@@H](C)c3ncc(C#N)cc3F)c(=O)c2c1F (single isomer, unassigned) [Compound 3004]', 'µM', 0.18),
  ('C[C@H](NC(=O)Cn1c(=O)[nH]c2cncnc2c1=O)c1ccc(F)cc1F [Compound 96]', 'µM', 100),
  ('CCC(C(=O)N[C@@H](C)c1ccc(F)cc1F)n1c(=O)[nH]c2ccccc2c1=O (single isomer, unassigned) [Compound 509]', 'µM', 100);
